molecular target: AP C3-convertase (C3bBb) (Homo sapiens (Human)) (UniProt P01024)
ATTRIBUTE MEASURED: AP-DAA IC50 (nM)
Reply with just the number (in nM).

>>> result_value("D2D3M3M4 (P216K) (protein) CEVPTRLNSASLKQPYITQNYFPVGTVVEYECRPGYRREPSLSPKLTCLQNLKWSTAVEFCKKKSCPNPGEIRNGQIDVPGGILFGATISFSCNTGYKLFGSTSSFCLISGSSVQWSDKLPECREIYCTPPPKIKNGKHTFSEVEVFEYLDAVTYSCDPAPGPDPFSLIGESTIYCGDNSVWSRAAPECKVVKCRFPVVENGKQISGFGKKFYYKATVMFECDKGFYLDGSDTIVCDSNSTWDPPVPKCLKVL")
3.4

Could you now consider this next binder?
IN: Requested field: AP-DAA IC50. Item: D2D3D4M4 (protein) CEVPTRLNSASLKQPYITQNYFPVGTVVEYECRPGYRREPSLSPKLTCLQNLKWSTAVEFCKKKSCPNPGEIRNGQIDVPGGILFGATISFSCNTGYKLFGSTSSFCLISGSSVQWSDPLPECREIYCPAPPQIDNGIIQGERDHYGYRQSVTYACNKGFTMIGEHSIYCTVNNDEGEWSGPPPECRGKSCRFPVVENGKQISGFGKKFYYKATVMFECDKGFYLDGSDTIVCDSNSTWDPPVPKCLKVL
OUT: 5.6

Data origin: patent US12662524B2
